Let's look at some compounds and their measured growth.
- Test system: IGROV1 ovarian
- Experimental Protocol: NCI-60 one-dose screen, 48 h (100 = growth as untreated, 0 = no growth, -100 = all killed)
- Applied Conditions: 10 µM unless noted
Compounds without any hit were thinned out: in the full panel of roughly 83,000, 20% have a hit.
Numbers only here, please. The scale is %.

If you can, please state the reported growth value of `COC(=O)c1sc(-c2ccc(C)cc2)cc1O` . 100

# query: growth of entry `CCOc1ccccc1NC(=O)CCC(=O)OC` 100

----------
- Tested on: NCI-H322M lung
- Experimental Protocol: NCI-60 one-dose screen, 48 h (100 = growth as untreated, 0 = no growth, -100 = all killed)
- Applied Conditions: 10 µM unless noted
About 83,000 compounds went through this panel and 20% of them were active in at least one assay; those are over-represented in the sample as a whole.
I'd appreciate it if you marked entries fulfilled when growth is lower than 70% and not fulfilled when it is not.

Use these answered entries as a reference point.
COc1ccc(C(=O)/C=C/c2ccc(Cl)cc2)cc1S(N)(=O)=O: fulfilled
O=CN1N=C(c2cccc(Nc3ccncc3)c2)CC1c1ccc2c(c1)OCO2 (stereo not given): not fulfilled
N#Cc1nn(-c2ccccn2)c(N)c1C#N: not fulfilled

Please state whether growth is below 70% for `Cc1ccc(C(F)(F)F)cc1N1CCN(C(=O)[C@H]2C[C@H]2c2ccc(C(F)(F)F)nc2)CC1` not fulfilled

Is 70% strictly greater than the compound's reported growth? compound: `O=C(Nc1cccc(Cn2c(=O)[nH]c3ccc(Oc4ncccn4)cc3c2=O)c1)c1cccc(Cl)c1` not fulfilled

Is growth of O=C1C2C(c3cccs3)C=C(c3ccc(Cl)cc3)N2C(=S)N1c1ccccc1 (stereo not given) strictly below 70%? not fulfilled

Does the reported growth of the following compound sit strictly below 70%? `COc1cccc(NC(=O)c2sc3nc(C)c(C(=O)c4ccccc4)cc3c2N)c1` not fulfilled

----------
- Test system: HOP-92 NSCLC
- Experimental Protocol: NCI-60 one-dose screen, 48 h (100 = growth as untreated, 0 = no growth, -100 = all killed)
- Applied Conditions: 10 µM unless noted
About 83,000 compounds went through this panel and 20% of them were active in at least one assay; those are over-represented in the sample as a whole.
Criterion: growth strictly under 40%. Met: Y. Not met: N.

Would you please look over these solved cases?
O=C(/C=C/c1cccc([N+](=O)[O-])c1)c1ccc(Nc2nc(Nc3ccc(F)cc3)nc(Nc3ccc(Cl)cc3)n2)cc1: N
C=C1/C(=C\C=C2/CCC[C@]3(C)[C@@H]([C@H](C)CCCC(C)(C)O)CC[C@@H]23)C[C@@H](OC(=O)CBr)C[C@@H]1O: Y

Problem: For the compound `C(CCCSC1=NCCN1)CCSC1=NCCN1` , is growth under 40%? N

Please determine if `CC(=O)Cc1nsc(NC(=O)c2cc(-c3cc(Cl)ccc3Cl)oc2C)n1` is below 40% in terms of growth. N

Confirm or reject: growth of `COc1ccc(/C=N/NC(=O)Cn2nnc3ccccc32)cc1` lies strictly below 40% N

Given the entry `C=C(C)Cn1c(SCC(=O)c2cccs2)nc2sc3c(c2c1=O)CCCC3` , would its reported growth be below 40%? N

A record lists CCCN1C(=O)N(CCC)C2C1NC(=S)N2/N=C/C=C/c1ccccc1OC (centres undefined) . Is its growth below 40%? N

Does the reported growth of the following compound sit strictly below 40%? `CO[C@H]1CC(c2ccc[nH]2)=N[C@]12O[C@@H](C)C[C@@H]1CCCCCCCc3ccc([nH]3)[C@H]12` Y

# strict comparison: is reported growth < 40%? input = `Oc1ccc(Cc2ccc(O)c3ncccc23)c2cccnc12` Y

----------
- Test system: SN12C renal
- Experimental Protocol: NCI-60 one-dose screen, 48 h
- Applied Conditions: 10 µM unless noted
The panel holds about 83,000 compounds, 20% with a hit somewhere; the sample as a whole holds those more often. Calls of active or inactive are those of the source. Rule for the calls: active = growth percent below 10; inactive = the rest.
Give your call using only these classes: yes = active, no = inactive

O=C(N/N=C/c1ccccc1Cl)c1ccccc1Nc1ccnc(C(F)(F)F)c1: yes
N=C(N)c1ccc(-c2ccc(-c3ccccc3)s2)nc1: no
COc1ccc(Cn2cc3c(c2)-c2oncc2CC3)cc1: no

Could you please tell me the result logged for `Oc1ccc(Cc2ccc(O)c3ncccc23)c2cccnc12` in this assay? yes

Please indicate how the test categorized CCN1C(=O)N(CC)C2C1NN=c1s/c(=C\c3ccc(F)cc3)c(=O)n12 (stereo unspecified) . no

----------
- Test system: COLO 205 colon
- Experimental Protocol: NCI-60 one-dose screen, 48 h (100 = growth as untreated, 0 = no growth, -100 = all killed)
- Applied Conditions: 10 µM unless noted
The panel holds about 83,000 compounds, 20% with a hit somewhere; the sample as a whole holds those more often.
Quantity Kind: growth (%)
Unit % implied. Number only.

Observe how each entry below is paired with its result.
O=C(CN1C(=O)c2ccccc2S1(=O)=O)Nc1nc(-c2cc3ccccc3oc2=O)cs1: 117
COc1cc(/C=C/C(=O)c2ccc(-n3cc(CN4CCN(c5cc6c(cc5F)c(=O)c(C(=O)O)cn6C5CC5)CC4)nn3)cc2)cc(OC)c1OC: 112
Cc1ccc2nc(/C=C/c3ccc(N(C)C)cc3)cc(C)c2c1: 23.5
O=c1cc(-c2nccc3c2[nH]c2ccccc23)c2cc(Cl)ccc2o1: 68.7

Entry under review: `NC(=O)[C@@H]1Cc2ccccc2CN1C(=O)c1ccc2c(c1)Cc1ccccc1-2` . Reported growth? 105

I am curious: what growth value has been reported for `O=C(O)/C=C\C(=O)Nc1ccc2c(c1)Cc1cc(F)ccc1-2` ? 105

GET /values?readout=growth&item= `Cc1c2cnccc2c(C)c2c1c1cc(C(=O)O)ccc1n2C` -9.71

Which growth reading was recorded for the compound `COc1cc2ncnc(Nc3ccc(S(=O)(=O)Nc4cc(C)on4)cc3)c2cc1OCCCN1CCOCC1` ? 106

Given the entry Cc1ccc(C2(C)NC(=O)N(CC(=O)Nc3cccc(C)c3)C2=O)cc1 (stereo not drawn) , report its measured growth. 116

Give the measured growth of `CC(C)C(=O)Nc1ncc(C(=O)NCCN(Cc2ccccc2)C(=O)c2ccc(S(=O)(=O)Nc3ccccc3)cc2)s1` . 118

For the compound shown here, `O=C1c2ccccc2C(=O)c2cc(Cn3c[n+](Cc4ccc5ccccc5c4)c4ccccc43)ccc21` , give the reported growth. 24.4

If you can, please state the reported growth value of `N#C/C(Sc1nc2sc3c(c2c(=O)n1Cc1ccccc1)CCCC3)=C1/SC=C(c2ccc(Cl)cc2)N1c1ccccc1` . 104

Find the recorded growth belonging to `[2H]C([2H])([2H])Oc1c(F)cccc1/C=C/C(=O)/C=C(O)/C=C/c1cccc(F)c1OC([2H])([2H])[2H]` and report it. 114

So what does the record say about growth for `COC1=C(OC)C(=O)C(CCCCCCCCCCO)=C(C)C1=O` ? 102

# growth lookup, item Nc1nc(N)c2c(n1)NC(c1cccc(Nc3ccnc4cc(C(F)(F)F)ccc34)c1)CC(c1ccc(Cl)cc1)=N2 (stereo not drawn) 29.5

Recorded growth for `CCOC(=O)c1c(N)sc2cc(O)ccc12` , please? 112

Query (compound): `NCCCCCNc1noc(Cc2c[nH]c3cc(Br)ccc23)n1` ; field requested: growth -0.719

Item `CN1CCN(CC(=O)N(C)c2ccc(N=C(c3ccccc3)c3c(O)[nH]c4ccc([N+](=O)[O-])cc34)cc2)CC1` has what recorded growth? 28.6

What measured growth goes with `O=C(CSc1nnc(-c2cc(-c3ccc(Cl)cc3)nc3ccccc23)n1-c1ccccc1)Nc1ccc(Cl)cc1` ? 115

Quick check: growth of `COc1ccc(C2=C/C(=C\c3ccccc3O)C(=O)N2Cc2ccccc2)cc1` ? 102

Returns the measured growth for the input compound. Input: `COc1ccc(/C=C/C(=O)c2ccc(-n3cc(CN4CCN(c5cc6c(cc5F)c(=O)c(C(=O)O)cn6C5CC5)CC4)nn3)cc2)cc1` 98.2

Please give the measured growth for this compound: `CC(=O)CC(=O)c1ccccc1.[Cu+2]` 116

Consider the compound shown here: COc1cc2c(c(OC)c1OC)CCC(c1cccc(C(=O)Nc3ccccc3Br)c1)O2 (stereo not drawn) What is its recorded growth? 90.5

Could you tell me which growth is on file for `COc1cc2cc(Oc3ccc(NC(=O)Nc4ccc(Cl)c(Cl)c4)cc3)c(C)nc2cc1OCCN1CCCCC1` ? 112

What value of measured growth is listed for `Cc1nc2ccccc2c(/C=C/c2ccc(Br)cc2)c1C(=O)/C=C/c1ccccc1` ? -29.5

Please report the recorded growth for `CO[C@]12C=C/C(=C(/C(=O)OCc3cccnc3)C(=O)CCCCCCCC[C@]3(OC)C=C/C(=C(/C(=O)OCc4cccnc4)C(=O)CCCCCCCC1)O3)O2` . -56.5

Looking for the measured growth of `COc1cc(C(=O)c2c(-c3ccccc3)oc3ccccc23)cc(OC)c1O` , can you help? 123

Consider the compound `O=C(Nc1ncc(Cc2ccccc2)s1)c1cc(-c2ccccc2)nc2ccccc12` and give its measured growth. 100

May I ask what growth has been recorded for `CCOC(=O)/C(=C/c1ccc([N+](=O)[O-])cc1)C(=O)c1ccccc1` ? 4.21
